experiment: CCTE_Shafer_MEA_dev_firing_rate_mean: CCTE's Neural Network Formation Assay for Mean Firing Rate, Shafer Lab (AID 2284031);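 further: AUC of well mean spike rate recorded on DIV 5 7 9 and 12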
Calls of active or inactive are those of the source. How the source made its calls: active means hit-call score of the fitted dose curve at least 0.9, where 1 is the maximum; inactive means score below 0.9.
Please state which outcome applies, choosing from active, inactive

GET /call?item= Oc1ccc(C(c2ccc(O)cc2)(C(F)(F)F)C(F)(F)F)cc1 returns the recorded outcome of this test.
inactive

GET /call?item= COc1ccc(O)c(C(C)(C)C)c1 returns the recorded outcome of this test.
inactive

GET /call?item= O=C(O)C(F)(F)C(F)(F)C(F)(F)C(F)(F)C(F)(F)C(F)(F)C(F)(F)C(F)(F)F returns the recorded outcome of this test.
inactive

GET /call?item= O=S(=O)(O)C(F)(F)C(F)(F)C(F)(F)C(F)(F)C(F)(F)C(F)(F)F returns the recorded outcome of this test.
inactive

GET /call?item= ClC1=C(Cl)[C@]2(Cl)[C@@H]3[C@@H]4C[C@@H]([C@H]5O[C@@H]45)[C@@H]3[C@@]1(Cl)C2(Cl)Cl returns the recorded outcome of this test.
active
